The reported measurements were obtained from patent US20230286973A1.

Some compounds, each annotated with its measured EC50.
- System: multiple myeloma cell line NCI-H929
- assay_overview: H929 Cell Viability Assay
- Assay type: cell-based, human
- assay_conditions: Homo sapiens, NCI-H929, 48 h, NCI-H929 cells, Celltiter-Glo
Write the number in nM without appending the unit.

Enquiry: // lookup EC50 | system=multiple myeloma cell line NCI-H929 | key= CC(=O)N1CCC(Oc2ccc(N3CCC[C@@H]3c3csc(NC(=O)c4cccn4Cc4ccnc(F)c4)n3)cc2F)CC1 [Compound A102]
Return: 317

Enquiry: Item: CN(C)C(=O)c1ccc(N2CCC[C@@H]2c2csc(NC(=O)c3cccn3Cc3ccncc3)n2)cc1 [Compound A18] Test system: multiple myeloma cell line NCI-H929 Read-out: EC50 Value: ?
Return: 1580

Enquiry: Lab note: need EC50 for CN(C)S(=O)(=O)N1CC(Oc2ccc(N3CCC[C@@H]3c3csc(NC(=O)c4cccn4Cc4ccnc(F)c4)n3)cc2)C1 [Compound A148] on multiple myeloma cell line NCI-H929, anyone have it?
Return: 1660

Enquiry: Param readout= EC50; system= multiple myeloma cell line NCI-H929; entry= CCc1ccc(N2CCC[C@@H]2c2csc(NC(=O)c3cccn3Cc3ccncc3)n2)cn1 [Compound C95] ; returns value.
Return: 127

Here is another compound to look at.
Enquiry: What is its EC50 for multiple myeloma cell line NCI-H929? Entry: Cc1cccc(/C=C/c2csc(NC(=O)c3cccn3Cc3ccnc(F)c3)n2)n1 [Compound B59]
Return: 7910
